Target: proprotein convertase PC2
Sequence (P21661 109-637): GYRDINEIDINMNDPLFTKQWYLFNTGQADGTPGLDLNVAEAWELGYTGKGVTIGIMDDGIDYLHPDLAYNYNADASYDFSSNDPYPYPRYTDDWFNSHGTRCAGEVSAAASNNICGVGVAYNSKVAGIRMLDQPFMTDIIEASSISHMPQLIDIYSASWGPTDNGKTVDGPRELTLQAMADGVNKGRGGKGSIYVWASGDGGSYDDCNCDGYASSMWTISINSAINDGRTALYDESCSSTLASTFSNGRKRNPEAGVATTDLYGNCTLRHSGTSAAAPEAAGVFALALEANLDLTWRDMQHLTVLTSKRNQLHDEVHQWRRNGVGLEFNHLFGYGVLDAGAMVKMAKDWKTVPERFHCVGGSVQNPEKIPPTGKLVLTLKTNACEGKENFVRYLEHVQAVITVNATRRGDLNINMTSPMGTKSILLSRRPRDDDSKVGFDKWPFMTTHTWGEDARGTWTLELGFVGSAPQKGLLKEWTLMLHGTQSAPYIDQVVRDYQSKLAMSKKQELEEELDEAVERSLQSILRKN
Assay: enzyme inhibition, pERTKR-MCA hydrolysis (fluorescence), competitive Ki
Observed Property: Ki (mM)
Lab book: enter the figure in mM, no units written.

Per the records, this substance ( Ac-MRKRRR-NH2 (peptide) ) has Ki equal to 1.5
